# Tested on: NCI-H226
# procedureDetails: NCI tumour cell line growth inhibition, 48 h
The source made the active and inactive calls. No stated cut-off is given here; in the data, active = GI50 up to about 1.1 µM and inactive = higher.
Field: GI50. Provide a value for each of the compounds that follow.

Query: Return reported GI50; argument: Cn1c2ccc(Cl)cc2c2ccc3c(c21)C(=O)C=CC3=O
Result: > 10 µM (inactive)

Query: Please report the recorded GI50 for Cc1cc(OCc2nc(N)nc(N)c2-c2ccc(Cl)c(Cl)c2)ccc1[N+](=O)[O-] .
Result: 8.67 µM (inactive)

Query: State the recorded GI50 for this entry: c1ccc(C(C2=Nc3cccc4cccc(c34)N2)c2ccccc2)cc1
Result: 31.6 µM (inactive)

Query: // lookup GI50 for N#CCCN(CCC#N)c1ccc(/C=C2\N=C(c3ccccc3)N(NC(N)=S)C2=O)cc1
Result: > 100 µM (inactive)

Query: For NC(Cc1ccc(OCc2ccccc2)cn1)C(=O)O (centres undefined) , what is its reported GI50?
Result: > 100 µM (inactive)

Query: Would you kindly share the measured GI50 for CCCCCCCCP(=O)(O)OP(=O)(O)OCC1OC(n2ccc(N)nc2=O)C(O)C1O (centres undefined) ?
Result: > 100 µM (inactive)

Query: Would you mind telling me what GI50 value was observed for COC(=O)NCCc1n[nH]c2c1C(=O)C=C(N1CCOCC1)C2=O ?
Result: > 100 µM (inactive)

Query: Would you kindly share the measured GI50 for O=P1(Oc2ccc(Cl)cc2)OCCS1 (centres undefined) ?
Result: > 100 µM (inactive)

Query: Which GI50 reading was recorded for the compound CCOC(=O)C1=C(Nc2cccc3ccccc23)OC/C1=N\NC(=O)c1ccccc1O ?
Result: 22.3 µM (inactive)

Query: Item Cc1oc2c(C)c(O)c3c(c2c1C1(C)OCCO1)C(=O)C=C(Cl)C3=O has what recorded GI50?
Result: > 100 µM (inactive)

Query: I'd like to know its GI50. The compound in question is CCCCNC(=S)N/C=C1\C(=O)Oc2ccccc2C1=O
Result: > 100 µM (inactive)

Query: State the recorded GI50 for this entry: O=C1C2=C(C3=NCCc4c[nH]c1c43)C1(C=C(Br)C(O)C(Br)=C1)CCN2 (centres undefined)
Result: 3.4 µM (inactive)

Query: // lookup GI50 for CCCCCCOc1ccc(C(=O)NOCc2ccccc2)cc1
Result: > 100 µM (inactive)

Query: Any idea what GI50 was measured for COc1ccc(N2CCN(c3ccc4c(c3)NCC(=O)N4)CC2)cc1 ?
Result: > 100 µM (inactive)

Query: Look at this compound and give its reported GI50. Cn1c(-c2cccs2)cc(-c2ccsc2)c1-c1cccs1
Result: > 100 µM (inactive)

Query: Name the recorded GI50 for COc1ccc(NC(=O)CC/C(CC(=O)c2ccco2)=N/Nc2ccc([N+](=O)[O-])cc2[N+](=O)[O-])cc1 .
Result: > 100 µM (inactive)

Query: Find the recorded GI50 belonging to O=C1CCCCC1C(O)(C(F)(F)F)C(F)(F)Cl (centres undefined) and report it.
Result: > 10 µM (inactive)

Query: # query: GI50 of entry CCOc1ccccc1Nc1ccc(N)cc1S(=O)(=O)O
Result: > 100 µM (inactive)

Query: So what's the measured GI50 for this one? COC(=O)C(Cc1c[nH]c2ccccc12)NP(=O)(O)OCC1OC(n2cc(I)c(=O)[nH]c2=O)CC1O (centres undefined)
Result: > 100 µM (inactive)
